Cited source for all entries: PubChem BioAssay (NCI)

Test system: EKVX NSCLC
Assay: NCI-60 one-dose screen, 48 h (100 = growth as untreated, 0 = no growth, -100 = all killed)
Details: 10 µM unless noted
This is part of a sample that, as a whole, favours compounds with a hit. Of some 83,000 tested, about 20% had one in any assay.
Field: label. Allowed values: Satisfied (growth < 70%) or Not satisfied (growth >= 70%).

>>> print(df.to_string())
                                    compound      classname
 0  CCN(CC)c1ccc(/C=N/Nc2nc(-c3ccc(Br)cc3)cs2)c(O)c1  Not satisfied
 1  Cc1cnc(C(=O)NNc2nc3cc(F)ccc3n3c(C(=O)N4CC5CC(C4)N5)ccc23)cn1      Satisfied
 2  CN1CCN(/C(=N\c2sc(-c3ccccc3)nc2-c2ccccc2)c2ccccc2)CC1  Not satisfied
 3  COc1ccc(/C=C/c2nc3ccccc3n3c(-c4ccc(Cl)cc4)nnc23)cc1  Not satisfied
 4  CCOP(=O)(OCCCl)c1nc(-c2ccc(C)cc2)oc1NCc1ccccc1 (centres undefined)      Satisfied
 5  O=c1oc2ccccc2cc1-c1csc(N2N=C(c3ccccc3)CC2c2ccc(N3CCOCC3)cc2)n1 (centres undefined)  Not satisfied
 6  COc1ccc(C(=O)/C=C/c2cccnc2)cc1S(N)(=O)=O      Satisfied
 7  CC12CC[C@@H]3[C@]4(C)COC(c5cn[nH]c5-c5ccc(Cl)cc5)O[C@@H]4CC[C@@]3(C)[C@@H]1CC(C1=CCOC1=O)O2 (some centres undefined)      Satisfied
 8  COc1ccc(C(=O)Nc2n[nH]c(Nc3ccccc3)c2C#N)cc1  Not satisfied
 9  C#CCOc1cc(N(CC)CC)ccc1C(C(=O)NC(C)(C)C)N(C(=O)C1CCc2cc(F)ccc2O1)c1ccc(F)c(Cl)c1 (centres undefined)      Satisfied
10  O=C(Cn1nc(-c2ccccc2)ccc1=O)N/N=C/c1ccc(N2CCOCC2)cc1  Not satisfied
11  CN(C)c1nc(NCCNS(=O)(=O)c2ccc(C3=Nc4c(N)nc(N)nc4NC(c4ccccc4)C3)cc2)nc(Nc2ccc(F)cc2)n1 (centres undefined)      Satisfied
12      Nc1cc2ccccc2c(=O)n1NC(=O)c1ccc(I)cc1  Not satisfied
13  NS(=O)(=O)c1ccc(N=Nc2c(O)n(CC(=O)Nc3ccccc3Cl)c3ccccc23)cc1      Satisfied
14  Clc1ccc(-c2ccc(OCCCN3CCN(c4ccncc4)CC3)cc2)cc1      Satisfied
15  COc1ccc(-c2ccnc(SCc3cc4cc(OC)ccc4[nH]c3=O)n2)cc1      Satisfied
16  C=C1CCC2C3(C)COC(c4ccccc4)OC3CCC2(C)C1CC(NCc1ccccc1)C1=CCOC1=O (centres undefined)  Not satisfied
17  O=C(/C=C/c1ccc(O)c(O)c1)NC1CCOC1O (centres undefined)  Not satisfied
